- Test system: 454973-116-R2-J3-PDC spheroids, viability, % test/control;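 also: spheroids exposed to compounds for seven days; 100% = DMSO vehicle control viability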
- assay-procedure: Anticancer human tumor 454973-116-R2-J3-PDC patient-derived pancreatic carcinoma cell line growth inhibition [GQUAD]
- condition-parameters: second compound 3.16 µM; first compound 3.16 µM; hits give low values; spheroids with HUVEC and MSC
assay-endpoint: viability, T/C (%)

>>> observed_result("CCCS(=O)(=O)Nc1ccc(F)c(C(=O)c2c[nH]c3ncc(-c4ccc(Cl)cc4)cc23)c1F + CN(C)c1ccc(Nc2c3ccc(NC(=O)CCN4CCCC4)cc3nc3cc(NC(=O)CCN4CCCC4)ccc23)cc1")
82.4
>>> observed_result("COc1ncnc(C2CC2)c1-c1ncc2cnn(Cc3ccc(-c4nc(C(F)(F)F)cn4C(C)C)cc3)c2n1 + Cc1[nH]c2ccc(F)cc2c1-c1nc2c3cccnc3c3ncccc3c2[nH]1")
96.9
>>> observed_result("COc1ncnc(C2CC2)c1-c1ncc2cnn(Cc3ccc(-c4nc(C(F)(F)F)cn4C(C)C)cc3)c2n1 + Cc1cnc(CNC(=O)c2c(=O)c3ccc(N4CCCN(C)CC4)nc3n3c2sc2ccccc23)cn1")
67.8
